Reference source: patent US20240408055A1

- target_desc: Cathepsin B (Homo sapiens, UniProt P07858)
- assay_protocol: Cathepsin B Inhibitor Screening Assay Kit (fluorescence)
- condition_details: Cathepsin B 0.4 ng/group, 50 μL reaction; read-out: half maximal effective concentration (EC50) against Cathepsin B protease activity
measured_endpoint: pEC50
Bear in mind: pEC50 is minus log10 of a mol/L concentration; give just that figure.

Need pEC50 of C=C1C(=O)OC2/C=C(/C)CC/C=C(\C(=O)O)CC/C=C(\C)CCC12 (stereo not shown) , thanks.
5.37

----------
- target_desc: UniProt P07711
- Sequence (P07711 114-333): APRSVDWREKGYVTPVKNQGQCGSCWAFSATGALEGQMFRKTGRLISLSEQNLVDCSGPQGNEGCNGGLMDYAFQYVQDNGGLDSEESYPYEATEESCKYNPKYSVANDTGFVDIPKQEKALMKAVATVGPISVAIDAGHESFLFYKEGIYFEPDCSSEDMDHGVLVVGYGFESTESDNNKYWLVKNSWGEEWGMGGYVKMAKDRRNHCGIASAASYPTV
- assay_protocol: Cathepsin L Inhibitor Screening Assay Kit (fluorescence)
- condition_details: Cathepsin L 0.4 ng/group, 50 μL reaction; read-out: half maximal effective concentration (EC50) against Cathepsin L protease activity
- Method: The Cathepsin L Fluorescence Assay Kit (Cathepsin L Inhibitor Screening Assay Kit, BPS BIOSCIENCE, 79591) was used in the biochemical test method. According to the manufacturer's manual, the inhibition activity was measured through continuous kinetic analysis, the samples containing Cathepsin L were reacted with a fluorescent substrate in mixing, and the measured fluorescence (λex=360 nm, λem=460 nm) readings were used. The E64 protease inhibitor was used as a positive control. […]
measured_endpoint: pEC50
Bear in mind: pEC50 is minus log10 of a mol/L concentration; give just that figure.

Need pEC50 of C=C1C(=O)OC2/C=C(/C)CC/C=C(\C(=O)O)CC/C=C(\C)CCC12 (stereo not shown) [Anisomelic acid] , thanks.
5.43
